# TARGET_SYSTEM: Taq pol (Thermus aquaticus)
# Sequence (P19821 whole entry): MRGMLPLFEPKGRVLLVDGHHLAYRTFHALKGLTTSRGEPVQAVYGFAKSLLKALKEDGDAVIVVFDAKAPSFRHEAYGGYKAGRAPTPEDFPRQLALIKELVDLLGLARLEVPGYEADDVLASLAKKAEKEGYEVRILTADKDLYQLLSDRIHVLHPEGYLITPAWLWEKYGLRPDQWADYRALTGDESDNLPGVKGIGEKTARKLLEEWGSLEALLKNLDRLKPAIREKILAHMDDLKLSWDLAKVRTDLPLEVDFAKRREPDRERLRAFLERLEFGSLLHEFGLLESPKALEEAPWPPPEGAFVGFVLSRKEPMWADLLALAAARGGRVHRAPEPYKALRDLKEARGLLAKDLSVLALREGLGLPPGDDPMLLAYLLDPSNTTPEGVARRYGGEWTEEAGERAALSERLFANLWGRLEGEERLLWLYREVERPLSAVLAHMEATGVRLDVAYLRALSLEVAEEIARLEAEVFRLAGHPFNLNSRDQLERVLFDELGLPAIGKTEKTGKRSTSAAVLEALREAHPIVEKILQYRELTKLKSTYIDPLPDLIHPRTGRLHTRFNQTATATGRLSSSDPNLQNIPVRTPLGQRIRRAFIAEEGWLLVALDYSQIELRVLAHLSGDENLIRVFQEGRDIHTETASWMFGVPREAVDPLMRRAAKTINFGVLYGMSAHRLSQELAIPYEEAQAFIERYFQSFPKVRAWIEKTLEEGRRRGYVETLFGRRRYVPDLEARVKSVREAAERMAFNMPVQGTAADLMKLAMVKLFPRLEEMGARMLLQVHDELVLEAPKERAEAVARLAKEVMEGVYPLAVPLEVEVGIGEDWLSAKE
ASSAY_READOUT: IC50

> print(dat)
                                   compound                target.system  endpoint.value
1  CCCCCCCC/C=C\CCCCCCCC(=O)Oc1cccc2c1C(=O)C=C(C)C2=O [2f, 5-O-oleoyl-2-methyl-1,4-naphthoquinone]  Taq pol (Thermus aquaticus)        > 100 µM

---

# TARGET_SYSTEM: Human pol δ (Homo sapiens)
# Construct: purified by nuclear fractionation of human peripheral blood cancer cells (Molt-4); endogenous in cells
# Sequence (P28340 1-1107): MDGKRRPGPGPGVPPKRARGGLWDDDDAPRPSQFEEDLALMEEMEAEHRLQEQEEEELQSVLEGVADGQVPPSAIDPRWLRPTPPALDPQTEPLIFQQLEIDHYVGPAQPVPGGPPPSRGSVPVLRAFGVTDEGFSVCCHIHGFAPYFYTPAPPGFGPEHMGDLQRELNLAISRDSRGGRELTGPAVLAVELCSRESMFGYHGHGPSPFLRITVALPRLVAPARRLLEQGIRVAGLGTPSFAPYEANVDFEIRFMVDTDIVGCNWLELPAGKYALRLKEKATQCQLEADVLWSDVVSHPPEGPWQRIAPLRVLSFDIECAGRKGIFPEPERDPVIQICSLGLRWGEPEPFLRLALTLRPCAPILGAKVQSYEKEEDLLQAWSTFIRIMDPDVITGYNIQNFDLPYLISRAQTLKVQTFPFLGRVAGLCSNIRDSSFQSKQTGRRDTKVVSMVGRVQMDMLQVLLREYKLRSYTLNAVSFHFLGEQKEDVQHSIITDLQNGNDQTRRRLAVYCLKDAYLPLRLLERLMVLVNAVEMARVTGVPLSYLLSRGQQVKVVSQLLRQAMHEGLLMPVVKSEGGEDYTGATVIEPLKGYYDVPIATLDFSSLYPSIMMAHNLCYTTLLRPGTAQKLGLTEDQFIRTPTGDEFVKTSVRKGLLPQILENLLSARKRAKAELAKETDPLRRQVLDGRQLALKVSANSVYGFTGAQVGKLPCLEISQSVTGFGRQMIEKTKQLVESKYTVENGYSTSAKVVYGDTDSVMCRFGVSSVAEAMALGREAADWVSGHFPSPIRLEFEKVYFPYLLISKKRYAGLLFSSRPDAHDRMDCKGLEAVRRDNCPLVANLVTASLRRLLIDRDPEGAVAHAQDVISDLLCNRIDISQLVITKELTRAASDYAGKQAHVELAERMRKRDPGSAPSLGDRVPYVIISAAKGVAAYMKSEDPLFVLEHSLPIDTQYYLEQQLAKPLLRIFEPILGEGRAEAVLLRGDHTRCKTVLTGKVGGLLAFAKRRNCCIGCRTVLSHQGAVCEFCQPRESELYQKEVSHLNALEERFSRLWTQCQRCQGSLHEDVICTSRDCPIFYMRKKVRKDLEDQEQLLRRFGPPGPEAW
# METHOD_SUMMARY: DNA polymerase activity inhibition
# SETTINGS: 0.05 units enzyme; mean ± SD (n = 3)
ASSAY_READOUT: IC50 (µM)

> print(dat)
                                  structure               target.system  unit.label  endpoint.value
1  CCCCCCCC/C=C\CCCCCCCC(=O)Oc1cccc2c1C(=O)C=C(C)C2=O  Human pol δ (Homo sapiens)          µM             5.3

---

# TARGET_SYSTEM: Mouse IMP dehydrogenase (type II) (Mus musculus)
# Sequence (P24547 whole entry): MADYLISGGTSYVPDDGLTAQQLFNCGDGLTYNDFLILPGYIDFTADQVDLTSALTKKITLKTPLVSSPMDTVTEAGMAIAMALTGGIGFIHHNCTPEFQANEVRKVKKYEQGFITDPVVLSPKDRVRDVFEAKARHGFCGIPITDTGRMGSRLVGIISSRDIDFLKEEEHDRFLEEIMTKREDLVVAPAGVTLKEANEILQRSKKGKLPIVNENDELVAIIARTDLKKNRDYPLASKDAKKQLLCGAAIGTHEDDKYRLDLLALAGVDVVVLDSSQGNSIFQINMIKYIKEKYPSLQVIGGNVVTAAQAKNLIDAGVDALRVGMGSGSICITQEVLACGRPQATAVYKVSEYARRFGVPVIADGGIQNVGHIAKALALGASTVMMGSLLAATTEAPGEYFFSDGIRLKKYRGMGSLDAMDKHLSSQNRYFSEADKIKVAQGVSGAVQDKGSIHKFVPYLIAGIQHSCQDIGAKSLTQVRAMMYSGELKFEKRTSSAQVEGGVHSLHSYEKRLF
pIC50: −log10 of the molar value.
ASSAY_READOUT: pIC50

> print(dat)
                                  structure  endpoint.value
1  CCCCCCCC/C=C\CCCCCCCC(=O)Oc1cccc2c1C(=O)C=C(C)C2=O          < 4.00

---

# TARGET_SYSTEM: mammalian pols
# METHOD_SUMMARY: DNA polymerase activity inhibition, summary over the panel
# Type: biochemical
# SETTINGS: X family of pols; read-out: 50% inhibition dose
ASSAY_READOUT: IC50

> print(dat)
                                   compound  endpoint.value
1  CCCCCCCC/C=C\CCCCCCCC(=O)Oc1cccc2c1C(=O)C=C(C)C2=O [2f, 5-O-oleoyl-2-methyl-1,4-naphthoquinone]  9.2 to 10.6 µM

---

# TARGET_SYSTEM: Calf TdT (Bos taurus)
# Sequence (P06526 whole entry): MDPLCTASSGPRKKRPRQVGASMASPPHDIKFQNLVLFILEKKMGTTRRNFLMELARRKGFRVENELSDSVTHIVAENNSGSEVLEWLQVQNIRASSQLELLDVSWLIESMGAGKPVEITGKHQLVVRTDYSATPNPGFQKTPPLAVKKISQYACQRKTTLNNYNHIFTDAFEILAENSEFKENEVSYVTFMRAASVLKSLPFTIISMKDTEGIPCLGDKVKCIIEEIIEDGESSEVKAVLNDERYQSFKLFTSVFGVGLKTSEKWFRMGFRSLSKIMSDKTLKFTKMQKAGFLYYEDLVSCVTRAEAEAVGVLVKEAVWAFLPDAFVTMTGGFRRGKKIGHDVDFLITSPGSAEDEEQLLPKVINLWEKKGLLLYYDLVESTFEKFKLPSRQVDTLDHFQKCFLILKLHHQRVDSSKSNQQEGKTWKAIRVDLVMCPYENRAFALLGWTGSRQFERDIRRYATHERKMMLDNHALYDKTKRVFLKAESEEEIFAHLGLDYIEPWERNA
pIC50: −log10 of the molar value.
ASSAY_READOUT: pIC50

> print(dat)
                                  structure  endpoint.value
1  CCCCCCCC/C=C\CCCCCCCC(=O)Oc1cccc2c1C(=O)C=C(C)C2=O            4.97

---

# TARGET_SYSTEM: Human pol η (Homo sapiens, UniProt Q9Y253)
# Construct: A truncated form of human pol η (residues 1–511) tagged with His6 at its C-terminal; His6 (C)
# Sequence (Q9Y253 1-511): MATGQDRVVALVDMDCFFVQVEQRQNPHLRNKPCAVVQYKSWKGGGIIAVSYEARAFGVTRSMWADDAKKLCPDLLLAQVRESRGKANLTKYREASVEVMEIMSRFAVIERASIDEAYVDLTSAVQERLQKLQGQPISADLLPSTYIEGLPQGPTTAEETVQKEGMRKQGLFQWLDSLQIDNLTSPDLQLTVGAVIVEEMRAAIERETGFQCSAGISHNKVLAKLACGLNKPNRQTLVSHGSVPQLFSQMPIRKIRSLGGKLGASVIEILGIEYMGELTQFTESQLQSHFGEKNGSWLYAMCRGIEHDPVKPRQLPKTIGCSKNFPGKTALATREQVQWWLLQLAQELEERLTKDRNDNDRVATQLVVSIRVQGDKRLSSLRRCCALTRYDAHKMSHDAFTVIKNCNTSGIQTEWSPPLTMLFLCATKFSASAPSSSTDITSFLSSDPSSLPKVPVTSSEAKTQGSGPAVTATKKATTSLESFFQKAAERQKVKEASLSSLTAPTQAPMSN
# METHOD_SUMMARY: DNA polymerase activity inhibition
# SETTINGS: 0.05 units enzyme; mean ± SD (n = 3)
ASSAY_READOUT: IC50

> print(dat)
                                  structure  endpoint.value
1  CCCCCCCC/C=C\CCCCCCCC(=O)Oc1cccc2c1C(=O)C=C(C)C2=O          7.9 µM

---

# TARGET_SYSTEM: Human pol γ (Homo sapiens, UniProt P54098)
# Construct: His tag; made in house
# Sequence (P54098 1-1239): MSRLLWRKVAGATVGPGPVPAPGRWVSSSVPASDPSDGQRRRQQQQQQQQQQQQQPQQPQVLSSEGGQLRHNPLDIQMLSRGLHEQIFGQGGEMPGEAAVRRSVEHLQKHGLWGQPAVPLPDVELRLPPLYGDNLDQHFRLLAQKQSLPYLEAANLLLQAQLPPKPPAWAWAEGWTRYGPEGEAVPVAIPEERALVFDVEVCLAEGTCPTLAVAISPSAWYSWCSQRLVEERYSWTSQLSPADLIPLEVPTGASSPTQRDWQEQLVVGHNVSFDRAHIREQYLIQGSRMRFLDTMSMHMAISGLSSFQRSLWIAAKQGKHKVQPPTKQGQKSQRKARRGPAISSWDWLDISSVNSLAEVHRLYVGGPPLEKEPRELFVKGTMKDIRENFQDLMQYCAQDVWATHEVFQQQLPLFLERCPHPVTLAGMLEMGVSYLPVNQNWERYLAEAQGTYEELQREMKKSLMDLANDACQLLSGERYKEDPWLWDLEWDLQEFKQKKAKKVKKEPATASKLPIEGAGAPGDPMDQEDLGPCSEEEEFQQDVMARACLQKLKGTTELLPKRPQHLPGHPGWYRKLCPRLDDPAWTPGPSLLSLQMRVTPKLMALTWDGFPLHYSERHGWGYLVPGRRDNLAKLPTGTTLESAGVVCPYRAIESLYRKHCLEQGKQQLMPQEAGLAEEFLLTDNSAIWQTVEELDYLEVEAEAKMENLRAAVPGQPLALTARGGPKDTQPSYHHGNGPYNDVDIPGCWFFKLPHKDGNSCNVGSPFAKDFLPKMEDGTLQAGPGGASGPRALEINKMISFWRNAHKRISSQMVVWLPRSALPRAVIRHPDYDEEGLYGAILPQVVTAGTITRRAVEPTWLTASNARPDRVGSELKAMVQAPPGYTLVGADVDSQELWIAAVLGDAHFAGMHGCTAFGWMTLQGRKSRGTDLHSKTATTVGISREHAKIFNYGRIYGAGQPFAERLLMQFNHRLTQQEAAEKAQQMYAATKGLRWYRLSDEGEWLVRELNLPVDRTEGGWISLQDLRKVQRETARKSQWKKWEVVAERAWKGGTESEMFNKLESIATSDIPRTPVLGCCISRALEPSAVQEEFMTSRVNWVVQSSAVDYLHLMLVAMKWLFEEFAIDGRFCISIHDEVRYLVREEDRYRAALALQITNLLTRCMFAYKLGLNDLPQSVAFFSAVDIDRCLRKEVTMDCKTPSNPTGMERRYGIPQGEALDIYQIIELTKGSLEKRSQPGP
# METHOD_SUMMARY: DNA polymerase activity inhibition
# Type: biochemical
# SETTINGS: 0.05 units enzyme; mean ± SD (n = 3)
ASSAY_READOUT: IC50 (µM)

> print(dat)
                                  structure  unit.label  endpoint.value
1  CCCCCCCC/C=C\CCCCCCCC(=O)Oc1cccc2c1C(=O)C=C(C)C2=O          µM             4.5

---

# TARGET_SYSTEM: Human pol λ (Homo sapiens)
# Sequence (Q9UGP5 whole entry): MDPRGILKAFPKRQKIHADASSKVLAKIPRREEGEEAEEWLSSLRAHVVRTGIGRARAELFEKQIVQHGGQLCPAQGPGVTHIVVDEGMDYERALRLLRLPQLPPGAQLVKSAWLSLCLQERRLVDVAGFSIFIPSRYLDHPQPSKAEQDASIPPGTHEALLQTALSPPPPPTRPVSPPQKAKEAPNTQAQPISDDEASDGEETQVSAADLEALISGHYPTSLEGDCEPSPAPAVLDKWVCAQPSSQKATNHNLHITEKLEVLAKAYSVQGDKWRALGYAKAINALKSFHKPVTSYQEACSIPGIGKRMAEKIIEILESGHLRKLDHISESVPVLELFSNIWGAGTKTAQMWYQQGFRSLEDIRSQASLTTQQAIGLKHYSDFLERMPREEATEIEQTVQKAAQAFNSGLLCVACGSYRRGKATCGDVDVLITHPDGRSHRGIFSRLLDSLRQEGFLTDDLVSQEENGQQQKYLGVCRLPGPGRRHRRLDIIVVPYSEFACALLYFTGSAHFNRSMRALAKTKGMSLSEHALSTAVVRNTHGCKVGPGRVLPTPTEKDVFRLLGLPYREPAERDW
ASSAY_READOUT: IC50

> print(dat)
                                   molecule               target.system  endpoint.value
1  CCCCCCCC/C=C\CCCCCCCC(=O)Oc1cccc2c1C(=O)C=C(C)C2=O [2f, 5-O-oleoyl-2-methyl-1,4-naphthoquinone]  Human pol λ (Homo sapiens)          9.2 µM
